# Test system: UO-31
# assay.overview: In vitro cytostatic effect (SRB): UO-31, Kidney cancer
# assay.setup: read-out: LC50, 48-hour incubation
observable: CC50

Asked: Would you kindly share the measured CC50 for CCCCCCCCCCCCCCCCCCOC(COP(=O)(O)OCC1OC(n2cc(F)c(=O)[nH]c2=O)CC1O)COP(=O)(O)OCC1OC(n2ccc(N)nc2=O)C(O)C1O (racemic) [NSC 698688-A/1] ?
Given back: > 100 µM

* * *

Provide the recorded CC50 for the entries that follow.
# System: NCI-H460
# assay.overview: In vitro cytostatic effect (SRB): NCI-H460, Lung cancer
# assay.setup: read-out: LC50, 48-hour incubation

compound	CC50
CCCCCCCCCCCCCCCCCCOC(COP(=O)(O)OCC1OC(n2cc(F)c(=O)[nH]c2=O)CC1O)COP(=O)(O)OCC1OC(n2ccc(N)nc2=O)C(O)C1O (racemic)	> 100 µM

Now consider a different compound.
Asked: Please report the recorded CC50 for Nc1ccn(C2CCC(COP(=O)(O)OCC(O)COP(=O)(O)OCC3OC(n4cc(F)c(=O)[nH]c4=O)CC3O)O2)c(=O)n1 (racemic) .
Given back: > 100 µM

* * *

# Test system: UACC-62
# assay.overview: In vitro cytostatic effect (SRB): UACC-62, Melanoma
# assay.setup: read-out: LC50, 48-hour incubation
observable: CC50

molecule	study.system	observable	data.value
Nc1ccn(C2CCC(COP(=O)(O)OCC(O)COP(=O)(O)OCC3OC(n4cc(F)c(=O)[nH]c4=O)CC3O)O2)c(=O)n1 (racemic) [NSC 704533]	UACC-62	CC50	> 100 µM

Now examine the next entry.
Asked: Suppose we examine the molecule CCCCCCCCCCCCCCCCCCOC(COP(=O)(O)OCC1OC(n2cc(F)c(=O)[nH]c2=O)CC1O)COP(=O)(O)OCC1OC(n2ccc(N)nc2=O)C(O)C1O (racemic) [NSC 698688-A/1] ; what CC50 value has been reported?
Given back: > 100 µM

* * *

I'd appreciate it if you could supply CC50 values for the items below.
# Test system: BT-549
# assay.overview: In vitro cytostatic effect (SRB): BT-549, Breast cancer
# assay.setup: read-out: LC50, 48-hour incubation

compound	CC50
CCCCCCCCCCCCCCCCCCOC(COP(=O)(O)OCC1OC(n2cc(F)c(=O)[nH]c2=O)CC1O)COP(=O)(O)OCC1OC(n2ccc(N)nc2=O)C(O)C1O (racemic) [NSC 698688-A/1]	> 100 µM

Kindly consider the entry below.
Asked: Query: CC50; subject: Nc1ccn(C2CCC(COP(=O)(O)OCC(O)COP(=O)(O)OCC3OC(n4cc(F)c(=O)[nH]c4=O)CC3O)O2)c(=O)n1 (racemic) [NSC 704533]
Given back: > 100 µM

* * *

# Test system: SN12C
# assay.overview: In vitro cytostatic effect (SRB): SN12C, Kidney cancer
# assay.setup: read-out: LC50, 48-hour incubation
observable: CC50

molecule	CC50
CCCCCCCCCCCCCCCCCCOC(COP(=O)(O)OCC1OC(n2cc(F)c(=O)[nH]c2=O)CC1O)COP(=O)(O)OCC1OC(n2ccc(N)nc2=O)C(O)C1O (racemic)	> 100 µM

Asked: Suppose we examine the molecule Nc1ccn(C2CCC(COP(=O)(O)OCC(O)COP(=O)(O)OCC3OC(n4cc(F)c(=O)[nH]c4=O)CC3O)O2)c(=O)n1 (racemic) ; what CC50 value has been reported?
Given back: > 100 µM

* * *

# System: HL-60(TB)
# assay.setup: read-out: LC50, Leukemia, 48-hour incubation
Kindly state CC50 for each of the entries shown.

compound	CC50
Nc1ccn(C2CCC(COP(=O)(O)OCC(O)COP(=O)(O)OCC3OC(n4cc(F)c(=O)[nH]c4=O)CC3O)O2)c(=O)n1 (racemic)	> 100 µM

Note: attention shifts to another entry.
Asked: Would you mind telling me what CC50 value was observed for CCCCCCCCCCCCCCCCCCOC(COP(=O)(O)OCC1OC(n2cc(F)c(=O)[nH]c2=O)CC1O)COP(=O)(O)OCC1OC(n2ccc(N)nc2=O)C(O)C1O (racemic) ?
Given back: > 100 µM

* * *

# System: SNB-75
# assay.overview: In vitro cytostatic effect (SRB): SNB-75, Cancer of the central nervous system
# assay.setup: read-out: LC50, 48-hour incubation
observable: CC50

molecule	CC50
Nc1ccn(C2CCC(COP(=O)(O)OCC(O)COP(=O)(O)OCC3OC(n4cc(F)c(=O)[nH]c4=O)CC3O)O2)c(=O)n1 (racemic)	> 100 µM

// moving on: another record for CC50
Asked: Look up CC50 with SNB-75 for this molecule: CCCCCCCCCCCCCCCCCCOC(COP(=O)(O)OCC1OC(n2cc(F)c(=O)[nH]c2=O)CC1O)COP(=O)(O)OCC1OC(n2ccc(N)nc2=O)C(O)C1O (racemic)
Given back: > 100 µM

* * *

# Tested on: CAKI-1
# assay.overview: In vitro cytostatic effect (SRB): CAKI-1, Kidney cancer
# assay.setup: read-out: LC50, 48-hour incubation
Hi there, I'd appreciate the recorded CC50 for every entry that follows.

Batch of 2 compounds: report CC50 for each.
1. Nc1ccn(C2CCC(COP(=O)(O)OCC(O)COP(=O)(O)OCC3OC(n4cc(F)c(=O)[nH]c4=O)CC3O)O2)c(=O)n1 (racemic) [NSC 704533]
2. CCCCCCCCCCCCCCCCCCOC(COP(=O)(O)OCC1OC(n2cc(F)c(=O)[nH]c2=O)CC1O)COP(=O)(O)OCC1OC(n2ccc(N)nc2=O)C(O)C1O (racemic) [NSC 698688-A/1]

Given back:
> 100 µM
> 100 µM

* * *

Please respond with reported CC50 for every item in the list.
# System: NCI-H226
# assay.overview: In vitro cytostatic effect (SRB): NCI-H226, Lung cancer
# assay.setup: read-out: LC50, 48-hour incubation

molecule	observable	data.value
Nc1ccn(C2CCC(COP(=O)(O)OCC(O)COP(=O)(O)OCC3OC(n4cc(F)c(=O)[nH]c4=O)CC3O)O2)c(=O)n1 (racemic) [NSC 704533]	CC50	> 100 µM

# context switch: different molecule, same CC50
Asked: Suppose we examine the molecule CCCCCCCCCCCCCCCCCCOC(COP(=O)(O)OCC1OC(n2cc(F)c(=O)[nH]c2=O)CC1O)COP(=O)(O)OCC1OC(n2ccc(N)nc2=O)C(O)C1O (racemic) [NSC 698688-A/1] ; what CC50 value has been reported?
Given back: > 100 µM

* * *

# Tested on: A498
# assay.overview: In vitro cytostatic effect (SRB): A498, Kidney cancer
# assay.setup: read-out: LC50, 48-hour incubation
observable: CC50

Asked: // returns reported CC50 for input CCCCCCCCCCCCCCCCCCOC(COP(=O)(O)OCC1OC(n2cc(F)c(=O)[nH]c2=O)CC1O)COP(=O)(O)OCC1OC(n2ccc(N)nc2=O)C(O)C1O (racemic)
Given back: > 100 µM

* * *

# Tested on: 768-0
# assay.overview: In vitro cytostatic effect (SRB): 768-0, Kidney cancer
# assay.setup: read-out: LC50, 48-hour incubation
observable: CC50 (µM)
Answers are plain numbers, in µM.

Asked: Item CCCCCCCCCCCCCCCCCCOC(COP(=O)(O)OCC1OC(n2cc(F)c(=O)[nH]c2=O)CC1O)COP(=O)(O)OCC1OC(n2ccc(N)nc2=O)C(O)C1O (racemic) [NSC 698688-A/1] has what recorded CC50?
Given back: 44.4

* * *

# Test system: TK-10
# assay.overview: In vitro cytostatic effect (SRB): TK-10, Kidney cancer
# assay.setup: read-out: LC50, 48-hour incubation
observable: CC50

compound	observable	data.value
Nc1ccn(C2CCC(COP(=O)(O)OCC(O)COP(=O)(O)OCC3OC(n4cc(F)c(=O)[nH]c4=O)CC3O)O2)c(=O)n1 (racemic)	CC50	> 100 µM

Asked: Find the measured CC50: item CCCCCCCCCCCCCCCCCCOC(COP(=O)(O)OCC1OC(n2cc(F)c(=O)[nH]c2=O)CC1O)COP(=O)(O)OCC1OC(n2ccc(N)nc2=O)C(O)C1O (racemic) , target or system TK-10.
Given back: > 100 µM

* * *

# Tested on: LOX IMVI
# assay.overview: In vitro cytostatic effect (SRB): LOX IMVI, Melanoma
# assay.setup: read-out: LC50, 48-hour incubation
observable: CC50

molecule	CC50
Nc1ccn(C2CCC(COP(=O)(O)OCC(O)COP(=O)(O)OCC3OC(n4cc(F)c(=O)[nH]c4=O)CC3O)O2)c(=O)n1 (racemic) [NSC 704533]	> 100 µM

Turning to the following molecule.
Asked: Given the entry CCCCCCCCCCCCCCCCCCOC(COP(=O)(O)OCC1OC(n2cc(F)c(=O)[nH]c2=O)CC1O)COP(=O)(O)OCC1OC(n2ccc(N)nc2=O)C(O)C1O (racemic) [NSC 698688-A/1] , report its measured CC50.
Given back: > 100 µM
